Molecular target: dihydroceramide desaturase (Des1) (Homo sapiens, UniProt O15121)
Sequence (O15121 2-323): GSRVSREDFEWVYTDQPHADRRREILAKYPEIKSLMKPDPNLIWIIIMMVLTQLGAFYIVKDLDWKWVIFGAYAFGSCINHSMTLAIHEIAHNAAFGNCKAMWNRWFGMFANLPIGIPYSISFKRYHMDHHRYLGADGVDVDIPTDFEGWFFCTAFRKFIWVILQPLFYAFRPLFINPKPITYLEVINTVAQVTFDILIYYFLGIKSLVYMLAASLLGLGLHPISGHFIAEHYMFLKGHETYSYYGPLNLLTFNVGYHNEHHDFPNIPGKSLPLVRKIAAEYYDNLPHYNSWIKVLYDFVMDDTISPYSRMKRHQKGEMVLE
Assay: Des1 activity in intact Jurkat cells labeled with DhCer-C6-NBD, HPLC with fluorescence detection
measurement type: pIC50
Give bare numbers, as −log10 of the molar value.

Req: Please indicate pIC50 recorded for O=C(NCc1ccncc1)C12CC3CC(C1)CC(c1ccc(Cl)cc1)(C3)C2 [ABC294640]
Resp: 4.99
